biological target: Vitronectin receptor αVβ3 (Homo sapiens, UniProt P05106+P06756); test: Vitronectin Receptor αVβ3 Binding Assay; settings: read-out: VnR (IC50μM)
Sequence (P06756 31-889 limits assumed): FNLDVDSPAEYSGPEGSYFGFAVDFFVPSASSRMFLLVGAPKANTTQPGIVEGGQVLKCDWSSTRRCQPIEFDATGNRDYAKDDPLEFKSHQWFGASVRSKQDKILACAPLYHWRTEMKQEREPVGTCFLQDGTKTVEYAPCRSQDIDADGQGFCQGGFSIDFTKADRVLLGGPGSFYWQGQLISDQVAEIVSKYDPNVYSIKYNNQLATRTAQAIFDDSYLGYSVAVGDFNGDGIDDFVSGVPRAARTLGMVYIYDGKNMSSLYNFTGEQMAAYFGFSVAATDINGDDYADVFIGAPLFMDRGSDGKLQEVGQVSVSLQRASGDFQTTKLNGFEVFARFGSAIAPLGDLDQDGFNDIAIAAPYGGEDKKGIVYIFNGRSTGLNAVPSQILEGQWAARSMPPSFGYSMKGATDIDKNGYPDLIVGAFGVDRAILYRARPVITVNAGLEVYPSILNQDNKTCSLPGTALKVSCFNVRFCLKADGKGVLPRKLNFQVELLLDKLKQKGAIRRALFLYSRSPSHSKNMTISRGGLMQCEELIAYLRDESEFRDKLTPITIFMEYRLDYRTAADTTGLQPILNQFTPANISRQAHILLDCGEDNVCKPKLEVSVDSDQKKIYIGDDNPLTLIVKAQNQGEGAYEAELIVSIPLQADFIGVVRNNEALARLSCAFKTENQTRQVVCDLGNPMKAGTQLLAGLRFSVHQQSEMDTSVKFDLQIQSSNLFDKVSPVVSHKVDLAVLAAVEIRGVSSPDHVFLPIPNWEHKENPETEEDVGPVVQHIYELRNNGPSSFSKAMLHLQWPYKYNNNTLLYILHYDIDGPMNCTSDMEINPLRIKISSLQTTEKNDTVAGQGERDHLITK
Sequence (P06756 891-1048 partner limits assumed): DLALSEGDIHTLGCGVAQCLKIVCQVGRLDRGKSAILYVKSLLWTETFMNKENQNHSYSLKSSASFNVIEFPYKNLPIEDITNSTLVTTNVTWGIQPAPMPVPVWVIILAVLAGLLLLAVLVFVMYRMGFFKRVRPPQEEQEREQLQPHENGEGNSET
Sequence (P05106 27-788): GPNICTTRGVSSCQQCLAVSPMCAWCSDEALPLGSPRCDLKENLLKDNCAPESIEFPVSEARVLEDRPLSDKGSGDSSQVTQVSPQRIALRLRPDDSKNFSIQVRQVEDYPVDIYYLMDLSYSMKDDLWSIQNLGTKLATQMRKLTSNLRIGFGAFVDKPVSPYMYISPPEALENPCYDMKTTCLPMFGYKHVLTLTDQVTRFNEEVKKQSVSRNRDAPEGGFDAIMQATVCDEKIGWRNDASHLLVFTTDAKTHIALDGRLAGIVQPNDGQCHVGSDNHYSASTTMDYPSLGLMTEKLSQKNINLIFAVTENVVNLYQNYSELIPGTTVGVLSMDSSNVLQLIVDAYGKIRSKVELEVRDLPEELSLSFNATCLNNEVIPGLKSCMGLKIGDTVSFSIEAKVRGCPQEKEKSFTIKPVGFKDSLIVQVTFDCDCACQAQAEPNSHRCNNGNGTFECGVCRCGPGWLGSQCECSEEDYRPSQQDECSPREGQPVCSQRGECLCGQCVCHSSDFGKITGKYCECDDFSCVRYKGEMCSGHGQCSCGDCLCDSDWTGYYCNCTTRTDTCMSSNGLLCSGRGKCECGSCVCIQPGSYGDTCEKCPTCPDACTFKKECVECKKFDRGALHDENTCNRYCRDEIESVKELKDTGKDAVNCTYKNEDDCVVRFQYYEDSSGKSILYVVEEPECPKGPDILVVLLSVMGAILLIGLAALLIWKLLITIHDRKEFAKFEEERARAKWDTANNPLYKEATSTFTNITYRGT
endpoint: IC50

Known IC50 results, listed for orientation:
>>> endpoint_value("CCCC(=O)N[C@@H](CNC(=O)c1ccc(OCCNC(=N)N)cc1O)C(=O)O")
"> 1 µM"
>>> endpoint_value("CCCCCCOC(=O)N[C@@H](CNC(=O)c1ccc(OCCNC(=N)N)cc1O)C(=O)O")
"0.8 µM"
>>> endpoint_value("N=C(N)NCCOc1ccc(C(=O)NC[C@H](NC(=O)/C=C/c2ccccc2)C(=O)O)c(O)c1")
"> 1 µM"
>>> endpoint_value("O=C(/C=C/c1ccccc1)N[C@@H](CNC(=O)c1ccc(OCCNC2=NCCN2)cc1O)C(=O)O")
"> 1 µM"
>>> endpoint_value("O=C(Nc1ccccc1)N[C@@H](CNC(=O)c1ccc(OCCNc2ncccn2)cc1O)C(=O)O")
"> 1 µM"

Note: attention shifts to another entry.
Entry COc1ccccc1NC(=O)N[C@@H](CNC(=O)c1ccc(OCCNc2ncccn2)cc1O)C(=O)O — recorded IC50 = > 1 µM
